These entries and their values trace back to paper PMC9090415.

# experimental target: UniProtKB Q8ILY1
# assay comment: Fluorescence-based high-throughput DNA polymerase assay (molecular beacon), primary screen and dose-response
# Assay type: biochemical
# applied conditions: DRC-1; 180'; concentration 40
observation type: % inhibition apPOL 180' (%)
Dear colleague, please return just the value in %, with no unit written.

Item "Cc1nc(/N=N/c2ccc(C(=O)[O-])cc2)c(COP(=O)([O-])[O-])c(C=O)c1O.[Na+].[Na+].[Na+]" has what recorded % inhibition apPOL 180'?
59.2191

----------
Each item that follows carries a reported % inhibition ApPOL 90'.
# experimental target: P. falciparum apicoplast DNA polymerase (Pf-apPOL) (Plasmodium falciparum, UniProt Q8ILY1)
# Sequence (Q8ILY1 entry or part of it): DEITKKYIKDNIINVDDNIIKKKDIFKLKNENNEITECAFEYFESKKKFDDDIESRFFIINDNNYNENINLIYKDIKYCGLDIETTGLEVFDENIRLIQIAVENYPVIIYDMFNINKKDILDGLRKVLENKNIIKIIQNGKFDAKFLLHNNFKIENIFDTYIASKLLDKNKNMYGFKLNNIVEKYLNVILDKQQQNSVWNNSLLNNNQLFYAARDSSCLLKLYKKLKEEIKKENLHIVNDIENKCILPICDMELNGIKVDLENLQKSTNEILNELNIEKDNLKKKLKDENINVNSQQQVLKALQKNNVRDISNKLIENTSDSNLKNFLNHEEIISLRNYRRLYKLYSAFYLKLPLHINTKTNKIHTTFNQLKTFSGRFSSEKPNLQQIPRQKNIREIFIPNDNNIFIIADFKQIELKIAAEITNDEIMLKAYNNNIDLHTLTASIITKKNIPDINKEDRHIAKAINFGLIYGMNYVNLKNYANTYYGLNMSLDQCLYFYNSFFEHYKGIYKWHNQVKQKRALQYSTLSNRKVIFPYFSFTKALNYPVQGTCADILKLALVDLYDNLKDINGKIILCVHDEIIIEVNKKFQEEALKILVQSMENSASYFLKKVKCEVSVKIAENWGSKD
# assay comment: Fluorescence-based high-throughput DNA polymerase assay (molecular beacon), primary screen and dose-response;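 also: test concentration in µM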
# Type: biochemical
# applied conditions: DRC-2; concentration 80; 90'
Dear colleague, please return just the value in %, with no unit written.

smiles str: Nc1ncnc(NC2CCCCC2)c1[N+](=O)[O-]
observation type: % inhibition ApPOL 90'
recorded measurement: 72

Item "Cc1cc(C)nc(Nc2nc(CC(=O)Nc3nc(-c4ccco4)cs3)cs2)n1" has what recorded % inhibition ApPOL 90'?
66

Item "O=C(Nc1c2c(nn1-c1ccccc1)CSC2)c1ccco1" has what recorded % inhibition ApPOL 90'?
77

----------
Each item that follows carries a reported % inhibition T4 10' 40.
# experimental target: bacteriophage T4 DNA polymerase (Enterobacteria phage T4, UniProt P04415)
# Construct: made in house
# Sequence (P04415 1-898): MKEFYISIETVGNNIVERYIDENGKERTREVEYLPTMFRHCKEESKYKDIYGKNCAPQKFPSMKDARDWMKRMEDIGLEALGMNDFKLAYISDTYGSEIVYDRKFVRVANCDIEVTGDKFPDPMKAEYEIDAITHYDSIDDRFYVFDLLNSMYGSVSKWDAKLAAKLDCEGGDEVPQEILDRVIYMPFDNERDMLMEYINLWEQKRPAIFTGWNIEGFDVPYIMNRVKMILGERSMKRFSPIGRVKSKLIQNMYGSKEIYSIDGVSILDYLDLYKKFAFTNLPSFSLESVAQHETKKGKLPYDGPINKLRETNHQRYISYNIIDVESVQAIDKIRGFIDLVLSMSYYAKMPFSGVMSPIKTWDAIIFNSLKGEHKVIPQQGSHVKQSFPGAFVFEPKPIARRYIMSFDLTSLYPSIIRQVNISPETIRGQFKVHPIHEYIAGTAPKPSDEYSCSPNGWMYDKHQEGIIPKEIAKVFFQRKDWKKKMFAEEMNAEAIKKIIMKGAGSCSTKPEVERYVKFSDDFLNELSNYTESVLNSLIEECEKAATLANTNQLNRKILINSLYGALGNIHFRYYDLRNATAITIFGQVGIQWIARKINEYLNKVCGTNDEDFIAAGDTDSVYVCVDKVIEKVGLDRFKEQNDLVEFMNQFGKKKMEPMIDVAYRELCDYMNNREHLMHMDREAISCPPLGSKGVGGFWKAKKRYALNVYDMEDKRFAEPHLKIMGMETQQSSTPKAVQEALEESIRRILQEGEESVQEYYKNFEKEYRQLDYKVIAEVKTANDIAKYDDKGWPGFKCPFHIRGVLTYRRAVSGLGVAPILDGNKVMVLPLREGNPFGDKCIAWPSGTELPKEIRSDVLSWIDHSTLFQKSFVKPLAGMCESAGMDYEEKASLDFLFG
# assay comment: Counter-screen against bacteriophage T4 DNA polymerase
# Assay type: biochemical
# applied conditions: DRC-2; read at 10'; concentration 40
Dear colleague, please return just the value in %, with no unit written.

Known % inhibition T4 10' 40 results, listed for orientation:
compound: C#CC(C=CC)OC(=O)c1ccccc1C(=O)O (centres unmarked)
% inhibition T4 10' 40, %: 12
//
compound: O=C(c1ccccc1)N1CCc2c(nc3cc(-c4ccccc4)[nH]n3c2=O)C1
% inhibition T4 10' 40, %: -17
//
compound: Cc1ccsc1Cn1c(C)ccc1C
% inhibition T4 10' 40, %: 14
//
compound: Cc1nc(C)c2c(n1)N(CC1CCCCC1)C(=O)CC2
% inhibition T4 10' 40, %: 12
//
compound: COc1ccc(C2CC(c3ccc(Cl)cc3Cl)Nc3nc(N)nn32)cc1OC (centres unmarked)
% inhibition T4 10' 40, %: 0.721
//
compound: Cn1nc(-c2nnc(-c3ccccc3F)o2)c2c1CCN(C(=O)c1ccccc1Cl)C2
% inhibition T4 10' 40, %: 3.35

Requested read-out % inhibition T4 10' 40, target or system bacteriophage T4 DNA polymerase (Enterobacteria phage T4, UniProt P04415), entry "Cc1cccc(-c2noc(C(=O)NNC(=O)C(Cl)(Cl)Cl)n2)c1"
-12

Requested read-out % inhibition T4 10' 40, target or system bacteriophage T4 DNA polymerase (Enterobacteria phage T4, UniProt P04415), entry "COc1ccccc1CC(=O)N1CCc2c(nc3cc(-c4ccccc4Cl)[nH]n3c2=O)C1"
-55

Requested read-out % inhibition T4 10' 40, target or system bacteriophage T4 DNA polymerase (Enterobacteria phage T4, UniProt P04415), entry "CCCc1ccc(Oc2coc3cc(OC)ccc3c2=O)cc1"
-1.47

Requested read-out % inhibition T4 10' 40, target or system bacteriophage T4 DNA polymerase (Enterobacteria phage T4, UniProt P04415), entry "Cc1cc2[nH]c(C(=O)Nc3ccc(F)cc3)c(CN3CCOCC3)c2s1"
25

Requested read-out % inhibition T4 10' 40, target or system bacteriophage T4 DNA polymerase (Enterobacteria phage T4, UniProt P04415), entry Cc1ccc(N2CCC(NC(=O)Cc3cccs3)C2=O)cc1C (centres unmarked)
25

Requested read-out % inhibition T4 10' 40, target or system bacteriophage T4 DNA polymerase (Enterobacteria phage T4, UniProt P04415), entry "CC(=O)OCC1=C(C(=O)[O-])N2C(=O)[C@@H](NC(=O)Cc3cccs3)[C@H]2SC1.[Na+]"
26

Requested read-out % inhibition T4 10' 40, target or system bacteriophage T4 DNA polymerase (Enterobacteria phage T4, UniProt P04415), entry "N#Cc1c(O)nc(N2CCCCC2)nc1-c1ccc2c(c1)OCO2"
-12

Requested read-out % inhibition T4 10' 40, target or system bacteriophage T4 DNA polymerase (Enterobacteria phage T4, UniProt P04415), entry "CC(=O)Nc1cc(C(=O)c2cccs2)nn(-c2ccc(Cl)cc2)c1=O"
7

Requested read-out % inhibition T4 10' 40, target or system bacteriophage T4 DNA polymerase (Enterobacteria phage T4, UniProt P04415), entry "O=C(CCc1csc(NC(=O)Nc2ccccc2)n1)Nc1nc2ccccc2s1"
5.57

Requested read-out % inhibition T4 10' 40, target or system bacteriophage T4 DNA polymerase (Enterobacteria phage T4, UniProt P04415), entry "COc1ccc(/C=C/c2cc(C(=O)O)c3ccccc3n2)cc1"
24

Requested read-out % inhibition T4 10' 40, target or system bacteriophage T4 DNA polymerase (Enterobacteria phage T4, UniProt P04415), entry CC(C)CC(C(=O)O)N1C(=O)C2C3C=CC(C2C1=O)C1C(=O)N(C(CC(C)C)C(=O)O)C(=O)C31 (centres unmarked)
28
